Collected pEC50 values appear next to each entry.
Test system: HCV 1b-BB7 subgenomic replicon
Assay: microbe, parasite or virus in culture
Assay type: cell-based, HCV genotype 1b
Settings: Hepatitis C virus, stable replicon, strain 1b BB7, 5% FBS + 40% human plasma; read-out: 1b BB7 5% FBS + 40% Human Plasma EC50
Friendly reminder that pEC50 comes from taking -log10 of the concentration in mol/L.

Tell me the measured pEC50 of CS(=O)(=O)N(CCCCC(N)=O)c1cc2oc(-c3ccc(F)cc3)c(-c3ncc[nH]3)c2cc1C1CC1 [Example 91] , please.
7.47

Same lookup for CCOC(=O)CCCCN(c1cc2oc(-c3ccc(F)cc3)c(-c3ncc[nH]3)c2cc1C1CC1)S(C)(=O)=O [Example 50] , please.
7.17

Okay, and CS(=O)(=O)N(CCCC(=O)N1CCOCC1)c1cc2oc(-c3ccc(F)cc3)c(-c3ncc[nH]3)c2cc1C1CC1 [Example 103] ?
6.94

Query C=CCN(c1cc2oc(-c3ccc(F)cc3)c(-c3ncc[nH]3)c2cc1C1CC1)S(C)(=O)=O [Example 57] next
7.16

Moving on to the next molecule: CS(=O)(=O)N(CCCC(=O)O)c1cc2oc(-c3ccc(F)cc3)c(C3=NOCCN3)c2cc1C1CC1 [Example 135]
5.26

Cool, now CS(=O)(=O)N(CCCCC(=O)O)c1cc2oc(-c3ccc(F)cc3)c(-c3ncc[nH]3)c2cc1C1CC1 [Example 92]
6.85

What about this molecule? COc1ccc(CN(c2cc3oc(-c4ccc(F)cc4)c(C4=NOCN4)c3cc2C2CC2)S(C)(=O)=O)cc1 [Example 145]
6.00

---

System: HCV NS5B polymerase 1a-H77-C316Y
Test: biochemical
Set-up: species or system HCV genotype 1a
Settings: ratio of enzyme IC50s, 1a H77-C316Y / 1a H77
Experimental: Purified HCV NS5B polymerase enzymes were used for polymerase inhibition assays. […] The reaction was initiated by the addition of 20 μM CTP, 20 μM ATP, 0.284 μM (0.5 μCi) of 5,6-[^3H] […] After drying thoroughly in air, 30 μL of Microscint-20 scintillation cocktail (Perkin Elmer) was added to each well, and the retained cpm were determined by scintillation counting. IC50 values were determined by nonlinear regression. […]
endpoint: C316Y/1a Fold Resistance (fold)
Express it in fold; write the number only.

Worked cases, answers included:
molecule	study-target	C316Y/1a Fold Resistance / fold
CS(=O)(=O)N(CCN1CCOCC1)c1cc2oc(-c3ccc(F)cc3)c(-c3ncc[nH]3)c2cc1C1CC1 [Example 58]	HCV NS5B polymerase 1a-H77-C316Y	18
CCCC/C=C/c1ccc(-c2oc3cc(N(CCCCS(C)(=O)=O)S(C)(=O)=O)c(C4CC4)cc3c2-c2ncc[nH]2)cc1 [Example 168]	HCV NS5B polymerase 1a-H77-C316Y	2

Please report the recorded C316Y/1a Fold Resistance for CS(=O)(=O)N(CCCc1nnn[nH]1)c1cc2oc(-c3ccc(F)cc3)c(-c3ncc[nH]3)c2cc1C1CC1 [Example 174] .
12

Try CS(=O)(=O)N(CCCC(F)(F)F)c1cc2oc(-c3ccc(F)cc3)c(C3=NOCCN3)c2cc1C1CC1 [Example 117] next.
8

Please give the result for CC(c1ccccc1)N(c1ccc2c(-c3ncc[nH]3)c(-c3ccccc3)oc2c1)S(C)(=O)=O (stereo not drawn) [Example 20] too.
5

Note, next up: CN(C)C(=O)CCCN(c1cc2oc(-c3ccc(F)cc3)c(-c3ncc[nH]3)c2cc1C1CC1)S(C)(=O)=O [Example 102]
22

Let us now turn to CS(=O)(=O)N(CCc1ccccc1)c1cc2oc(-c3ccc(F)cc3)c(-c3ncc[nH]3)c2cc1C1CC1 [Example 35]
23

What do you get for CCCCN(c1cc2oc(-c3ccc(F)cc3)c(-c3ncc[nH]3)c2cc1C1CC1)S(C)(=O)=O [Example 39] ?
16
